# ASSAY SYSTEM: TYK2 Pseudokinase (JH2) (Homo sapiens)
# Construct: HEK-Blue™ IL-23 and IFNα/0 cells with a stably-integrated cytokine receptor and STAT3 or STAT1; endogenous in cells; host or cells: HEK-Blue IL-23 and HEK-Blue IFNα/β reporter cells
# Sequence (P29597 whole entry): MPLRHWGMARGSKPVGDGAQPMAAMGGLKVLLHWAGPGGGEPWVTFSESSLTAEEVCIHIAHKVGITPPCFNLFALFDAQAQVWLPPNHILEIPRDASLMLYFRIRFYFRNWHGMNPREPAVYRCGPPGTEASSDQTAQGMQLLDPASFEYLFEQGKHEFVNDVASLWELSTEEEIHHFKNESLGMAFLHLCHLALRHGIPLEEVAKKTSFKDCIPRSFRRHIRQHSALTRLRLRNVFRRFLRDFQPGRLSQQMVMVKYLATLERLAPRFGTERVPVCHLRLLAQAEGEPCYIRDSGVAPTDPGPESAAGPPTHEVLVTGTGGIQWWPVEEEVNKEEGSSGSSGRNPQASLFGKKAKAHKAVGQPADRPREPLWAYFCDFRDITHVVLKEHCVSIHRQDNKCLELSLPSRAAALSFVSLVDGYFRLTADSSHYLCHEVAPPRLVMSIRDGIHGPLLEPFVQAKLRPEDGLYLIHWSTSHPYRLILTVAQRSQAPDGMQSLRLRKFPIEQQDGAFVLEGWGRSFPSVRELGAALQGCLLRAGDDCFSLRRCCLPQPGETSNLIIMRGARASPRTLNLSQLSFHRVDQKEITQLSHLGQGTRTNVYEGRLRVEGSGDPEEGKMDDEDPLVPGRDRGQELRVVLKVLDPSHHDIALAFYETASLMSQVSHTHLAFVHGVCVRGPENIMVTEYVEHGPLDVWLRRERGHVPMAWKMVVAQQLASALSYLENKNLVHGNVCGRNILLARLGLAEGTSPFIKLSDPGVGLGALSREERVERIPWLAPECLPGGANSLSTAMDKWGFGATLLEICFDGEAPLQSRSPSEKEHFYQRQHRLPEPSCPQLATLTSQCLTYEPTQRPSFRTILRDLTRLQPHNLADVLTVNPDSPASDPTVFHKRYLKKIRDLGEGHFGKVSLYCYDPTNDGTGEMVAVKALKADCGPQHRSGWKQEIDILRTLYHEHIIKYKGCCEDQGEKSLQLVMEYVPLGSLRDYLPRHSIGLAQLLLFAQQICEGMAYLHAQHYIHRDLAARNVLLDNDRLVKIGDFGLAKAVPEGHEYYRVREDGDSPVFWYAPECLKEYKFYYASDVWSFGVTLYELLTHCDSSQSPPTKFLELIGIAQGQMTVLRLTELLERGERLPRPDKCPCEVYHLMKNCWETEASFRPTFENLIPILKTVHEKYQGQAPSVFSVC
# ASSAY INFO: HEK-Blue IFNα/β reporter assay (STAT1-inducible SEAP) for profiling TYK2 pseudokinase (JH2) inhibition
# Type: cell-based
# STUDY CONDITIONS: HEK-Blue IFNα/β cells, 1 ng/mL human recombinant IFNα, SEAP readout
pIC50: −log10 of the molar value.
MEASURED PARAMETER: pIC50

Example results:
Query: Provide value of pIC50 for this record tested with TYK2 Pseudokinase (JH2) (Homo sapiens): CONC(=O)c1cnc(NC(=O)C2CC2)cc1Nc1cccc2c1N(C)[C@@H](C)c1nc(C)nn1-2
Response: 6.52 to 7.52

Query: Same question for CONC(=O)c1nnc(Nc2ccc(F)cn2)cc1Nc1cccc2c1N(C)[C@@H](C)c1nc(C)nn1-2 please.
Response: > 7.52

Moving on to the next compound.
Query: Provide value of pIC50 for this record tested with TYK2 Pseudokinase (JH2) (Homo sapiens): CONC(=O)c1nnc(Nc2cc(C)nc(C)n2)cc1Nc1cccc2c1N(C)[C@@H](C)c1nc(C)nn1-2
Response: > 7.52

Hello, the source for this data is patent US20260055121A1, in case you need it.
